Give measured half-life at 1 μM for each item. Keep answers brief.
assay: Multi-point microsome stability assay, human; format: in vitro ADME; settings: both, human microsomal fractions, pH 7.4
Give the quantity in min, number only.

Query :: Can you look up the measured half-life at 1 μM of C=C[C@H]1[C@H]2CCC[C@]1(c1cccc(NC(C)=O)c1)CCN2CCc1ccccc1 [compound 3] for me?
Result :: 21.3

Query :: Value lookup for half-life at 1 μM; key = C=C[C@H]1[C@H]2CCC[C@]1(c1cccc(O)c1)CCN2C [compound 11]
Result :: 68.9

Query :: Query (compound): C=C[C@H]1[C@H]2CCC[C@]1(c1cccc(O)c1)CCN2CC1CC1 [compound 15] ; field requested: half-life at 1 μM
Result :: 8.7

Query :: Need half-life at 1 μM, item C=C[C@H]1[C@H]2CCC[C@]1(c1cccc(O)c1)CCN2CCc1cccc([N+](=O)[O-])c1 [compound 18]
Result :: 10.6

Query :: # get_value(readout='half-life at 1 μM', item= C=C[C@H]1C2CCCC1(c1cccc(O)c1)CCN2CCc1cccc(O)c1 (stereo in doubt) [compound 25] )
Result :: 27

Query :: Name the reported half-life at 1 μM value associated with the compound C=C[C@H]1[C@H]2CCC[C@]1(c1cccc(O)c1)CCN2CCc1ccc(F)cc1 [compound 19]
Result :: 11.8

Query :: Fill in: half-life at 1 μM of C=C[C@H]1C2CCCC1(c1cccc(O)c1)CCN2CCc1ccccc1[N+](=O)[O-] (stereo in doubt) [compound 24] is ___
Result :: 5.02

----------
Measured Parameter: pKi
In textbook form, pKi equals minus log to base ten of the concentration in mol/L.

Query :: Enter reported pKi observed with mouse mu opioid receptor (mMOR-CHO) (Mus musculus) for C=C[C@H]1[C@H]2CCC[C@]1(c1cccc(O)c1)CCN2CCc1ccc([N+](=O)[O-])cc1 [compound 17]
Sequence (P42866 whole entry): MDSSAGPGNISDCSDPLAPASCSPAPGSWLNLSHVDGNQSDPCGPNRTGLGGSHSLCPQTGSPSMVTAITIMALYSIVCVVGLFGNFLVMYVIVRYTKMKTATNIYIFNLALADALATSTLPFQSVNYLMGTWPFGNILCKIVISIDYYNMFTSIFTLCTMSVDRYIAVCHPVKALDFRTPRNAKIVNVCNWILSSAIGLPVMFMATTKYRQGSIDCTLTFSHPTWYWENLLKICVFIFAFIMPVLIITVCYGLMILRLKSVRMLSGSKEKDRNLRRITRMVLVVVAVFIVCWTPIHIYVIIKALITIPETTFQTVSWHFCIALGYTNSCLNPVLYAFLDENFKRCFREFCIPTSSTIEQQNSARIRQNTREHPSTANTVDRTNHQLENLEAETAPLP
Result :: 9.39

Query :: # returns recorded pKi (system: mouse mu opioid receptor (mMOR-CHO) (Mus musculus)) for C=C[C@H]1[C@H]2CCC[C@]1(c1cccc(C(N)=O)c1)CCN2CCc1ccccc1 [compound 5]
Result :: 8.91

----------
target: human δ-opioid receptor (OPRD1) (Homo sapiens, UniProt P41143); test: Forskolin-induced cAMP accumulation assay, DOR antagonist mode
Sequence (P41143 whole entry): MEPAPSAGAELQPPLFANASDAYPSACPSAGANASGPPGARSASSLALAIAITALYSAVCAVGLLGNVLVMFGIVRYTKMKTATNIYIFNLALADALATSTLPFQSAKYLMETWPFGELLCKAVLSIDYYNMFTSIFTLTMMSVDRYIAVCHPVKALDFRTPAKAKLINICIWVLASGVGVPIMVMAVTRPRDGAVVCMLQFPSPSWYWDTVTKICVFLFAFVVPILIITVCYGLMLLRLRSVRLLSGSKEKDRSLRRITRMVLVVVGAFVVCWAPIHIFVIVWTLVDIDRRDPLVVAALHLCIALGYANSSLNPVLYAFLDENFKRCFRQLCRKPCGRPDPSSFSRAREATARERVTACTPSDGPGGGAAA
Measured Parameter: pIC50
Recall that pIC50 is obtained by taking minus log10 of the concentration measured in molar.

Query :: Please tell me: pIC50 of `C=C[C@H]1[C@H]2CCC[C@]1(c1cccc(O)c1)CCN2CCc1cccs1` , system human δ-opioid receptor (OPRD1) (Homo sapiens, UniProt P41143)?
Result :: 7.22

Query :: GET /values?readout=pIC50&system=human δ-opioid receptor (OPRD1) (Homo sapiens, UniProt P41143)&item= `C=C[C@H]1[C@H]2CCC[C@]1(c1cccc(O)c1)CCN2CCc1ccc([N+](=O)[O-])cc1`
Result :: 6.98

Query :: pIC50 of `C=C[C@H]1[C@H]2CCC[C@]1(c1cccc(O)c1)CCN2CCc1ccc(F)cc1` on human δ-opioid receptor (OPRD1) (Homo sapiens, UniProt P41143)?
Result :: 6.92

Query :: # query: pIC50 | item C=C[C@H]1C2CCCC1(c1cccc(O)c1)CCN2CCc1cccc(O)c1 (stereo in doubt) | system: human δ-opioid receptor (OPRD1) (Homo sapiens, UniProt P41143)
Result :: 6.97

Query :: # get_value(readout= pIC50, system= human δ-opioid receptor (OPRD1) (Homo sapiens, UniProt P41143)) for `C=C[C@H]1[C@H]2CCC[C@]1(c1cccc(C(N)=O)c1)CCN2CCc1ccccc1`
Result :: 6.30

Query :: // lookup pIC50 | system=human δ-opioid receptor (OPRD1) (Homo sapiens, UniProt P41143) | key= `C=C[C@H]1[C@H]2CCC[C@]1(c1cccc(O)c1)CCN2CCc1ccc(O)cc1`
Result :: 6.52

Query :: Request: pIC50, test system human δ-opioid receptor (OPRD1) (Homo sapiens, UniProt P41143), entry `C=C[C@H]1[C@H]2CCC[C@]1(c1cccc(O)c1)CCN2CCc1cccc([N+](=O)[O-])c1`
Result :: 7.28

Query :: // fetch human δ-opioid receptor (OPRD1) (Homo sapiens, UniProt P41143) pIC50 for C=C[C@H]1C2CCCC1(c1cccc(O)c1)CCN2CCc1ccccc1[N+](=O)[O-] (stereo in doubt)
Result :: 6.94
